tested on: S. aureus ATCC 700699 VISA; assay: Time-dependent killing; assay type: cell-based; conditions: 10xMIC; time 3 hour
endpointLabel: Time-kill bacterial count

Provide only the value of recorded Time-kill bacterial count for `CC(=O)O[C@H]1C[C@@]2(C)[C@@H](C[C@@H](O)[C@H]3[C@@]4(C)CC[C@@H](O)[C@@H](C)[C@@H]4CC[C@@]32C)/C1=C(\CCC=C(C)C)C(=O)O` 7.80E+04

Provide only the value of recorded Time-kill bacterial count for `CO[C@@H]1[C@@H](OC(N)=O)[C@@H](O)[C@H](Oc2ccc3c(O)c(NC(=O)c4ccc(O)c(CC=C(C)C)c4)c(=O)oc3c2C)OC1(C)C` 9.90E+04

Provide only the value of recorded Time-kill bacterial count for `CN[C@H](CC(C)C)C(=O)N[C@H]1C(=O)N[C@@H](CC(N)=O)C(=O)N[C@H]2C(=O)N[C@H]3C(=O)N[C@H](C(=O)N[C@H](C(=O)O)c4cc(O)cc(O)c4-c4cc3ccc4O)[C@H](O)c3ccc(c(Cl)c3)Oc3cc2cc(c3O[C@@H]2O[C@H](CO)[C@@H](O)[C@H](O)[C@H]2O[C@H]2C[C@](C)(N)[C@H](O)[C@H](C)O2)Oc2ccc(cc2Cl)[C@H]1O` 8.40E+04

Provide only the value of recorded Time-kill bacterial count for `Cc1[nH]c(C(=O)Nc2nc3c(OCc4ccccc4)cc(C(=O)O)cc3s2)c(Cl)c1Cl` 9.90E+04

Provide only the value of recorded Time-kill bacterial count for `Cc1[nH]c(C(=O)Nc2nc3ccc(C(=O)O)cc3s2)c(Cl)c1Cl` 9.80E+04

---

system: S. aureus clinical isolates; assay: microbe, parasite or virus in culture; type: cell-based; settings: Staphylococcus aureus, MRSA, S. aureus IHMA 1577820, MRSA / VSSA; read-out: MIC
endpointLabel: MIC

Provide only the value of recorded MIC for CC(=O)NC[C@H]1CN(c2ccc(N3CCOCC3)c(F)c2)C(=O)O1 [Linezolid] 2 µg/mL

Provide only the value of recorded MIC for Cc1onc(-c2ccccc2)c1C(=O)N[C@@H]1C(=O)N2[C@@H]1SC(C)(C)[C@@H]2C(=O)O [Oxacillin] 32 µg/mL

Provide only the value of recorded MIC for C[C@H]1COc2c(N3CCN(C)CC3)c(F)cc3c(=O)c(C(=O)O)cn1c23 [Levofloxacin] > 64 µg/mL

Provide only the value of recorded MIC for Cc1[nH]c(C(=O)Nc2nc3ccc(C(=O)O)cc3s2)c(Cl)c1Cl [ULD1] 1 µg/mL

Provide only the value of recorded MIC for CC[C@H]1OC(=O)[C@H](C)[C@@H](O[C@H]2C[C@@](C)(OC)[C@@H](O)[C@H](C)O2)[C@H](C)[C@@H](O[C@@H]2O[C@H](C)C[C@H](N(C)C)[C@H]2O)[C@](C)(O)C[C@@H](C)CN(C)[C@H](C)[C@@H](O)[C@]1(C)O [Azithromycin] > 32 µg/mL

Provide only the value of recorded MIC for Cc1[nH]c(C(=O)Nc2nc3c(OCc4ccccc4)cc(C(=O)O)cc3s2)c(Cl)c1Cl [ULD2] 0.5 µg/mL

---

tested on: S. aureus clinical isolates; experiment: microbe, parasite or virus in culture; assay type: cell-based; details: Staphylococcus aureus, MSSA, S. aureus IHMA 1584230, MSSA / VSSA; read-out: MIC
Kindly supply the reported MIC values for the records listed here.
Form entry: enter the amount, then its unit.

Provide only the value of recorded MIC for Cc1[nH]c(C(=O)Nc2nc3c(OCc4ccccc4)cc(C(=O)O)cc3s2)c(Cl)c1Cl [ULD2] 0.5 µg/mL

Provide only the value of recorded MIC for C[C@H]1COc2c(N3CCN(C)CC3)c(F)cc3c(=O)c(C(=O)O)cn1c23 [Levofloxacin] 0.25 µg/mL

Provide only the value of recorded MIC for Cc1onc(-c2ccccc2)c1C(=O)N[C@@H]1C(=O)N2[C@@H]1SC(C)(C)[C@@H]2C(=O)O [Oxacillin] 0.5 µg/mL

Provide only the value of recorded MIC for CC[C@H]1OC(=O)[C@H](C)[C@@H](O[C@H]2C[C@@](C)(OC)[C@@H](O)[C@H](C)O2)[C@H](C)[C@@H](O[C@@H]2O[C@H](C)C[C@H](N(C)C)[C@H]2O)[C@](C)(O)C[C@@H](C)CN(C)[C@H](C)[C@@H](O)[C@]1(C)O [Azithromycin] 1 µg/mL

Provide only the value of recorded MIC for CC(=O)NC[C@H]1CN(c2ccc(N3CCOCC3)c(F)c2)C(=O)O1 [Linezolid] 4 µg/mL

Provide only the value of recorded MIC for Cc1[nH]c(C(=O)Nc2nc3ccc(C(=O)O)cc3s2)c(Cl)c1Cl [ULD1] 1 µg/mL
